# experiment: Stability in rat liver microsomes assessed as half life
# Type: ADME, Microsome
experimental readout: half-life (min)
# unit: min | format: bare number

- Cc1noc(C)c1-c1ccc2nc(-c3cnn(CC(C)(C)O)c3)nc(N3CCOC[C@@H]3c3ccccc3)c2c1: 42

Please fill in: half-life reported for Cc1noc(C)c1-c1ccc2nc(-c3cnn(CC(C)(C)O)c3)nc(N3CCOC[C@@H]3C3CC3)c2c1 = 33

====

This listing pairs molecules with measured half-life.
# experiment: Stability in human liver microsomes assessed as half life
# Format: ADME, Microsome
Could you write the number and then its unit?

• Cc1noc(C)c1-c1ccc2nc(-c3cnn(CC(C)(C)O)c3)nc(N3CCOC[C@@H]3c3ccccc3)c2c1 = 1.7 h

Reported half-life for Cc1noc(C)c1-c1ccc2nc(-c3cnn(CC(C)(C)O)c3)nc(N3CCOC[C@@H]3C3CC3)c2c1 was 1.77 h
